# system_tested: T1, mouse PRLR on HEK293/mPRLR cells (Mus musculus, UniProt Q08501)
# T1 construct: HA; expressed in transfected cells; host or cells: HEK293
# T1 sequence (Q08501 20-608): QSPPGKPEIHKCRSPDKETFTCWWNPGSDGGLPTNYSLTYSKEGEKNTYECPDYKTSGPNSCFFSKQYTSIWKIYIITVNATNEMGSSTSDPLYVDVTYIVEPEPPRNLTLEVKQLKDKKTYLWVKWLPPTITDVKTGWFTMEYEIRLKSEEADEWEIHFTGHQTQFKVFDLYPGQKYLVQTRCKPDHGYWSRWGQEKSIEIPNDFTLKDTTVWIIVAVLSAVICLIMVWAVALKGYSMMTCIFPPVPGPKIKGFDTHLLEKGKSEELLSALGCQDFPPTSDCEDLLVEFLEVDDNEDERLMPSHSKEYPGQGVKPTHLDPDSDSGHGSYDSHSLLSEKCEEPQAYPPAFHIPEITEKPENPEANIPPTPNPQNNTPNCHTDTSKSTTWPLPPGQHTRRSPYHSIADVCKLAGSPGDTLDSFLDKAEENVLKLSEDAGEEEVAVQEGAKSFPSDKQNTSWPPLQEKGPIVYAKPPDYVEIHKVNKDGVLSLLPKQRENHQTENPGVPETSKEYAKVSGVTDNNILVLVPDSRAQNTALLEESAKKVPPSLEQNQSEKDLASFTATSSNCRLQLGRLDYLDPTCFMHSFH
# assay: FACS cell surface binding
value_kind: FACS Cell Binding (Fold Above Background)

molecule | value_kind | meas_value
H1H6959N2: anti-PRLR antibody, human IgG1 Fc form of H2M6959N2 of Table 1; HCVR/LCVR SEQ ID NOs 306/314 (antibody, V domains shown) VH: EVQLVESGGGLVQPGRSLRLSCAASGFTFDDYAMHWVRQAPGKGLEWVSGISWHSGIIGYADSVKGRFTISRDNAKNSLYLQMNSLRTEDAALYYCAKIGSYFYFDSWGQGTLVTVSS VL: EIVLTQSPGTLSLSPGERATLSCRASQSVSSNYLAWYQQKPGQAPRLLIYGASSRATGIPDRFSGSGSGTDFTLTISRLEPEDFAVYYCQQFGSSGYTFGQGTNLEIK | FACS Cell Binding | 2
